Overview of reported IC50 across a group of compounds:
- System: HL-60
- Test summary: Cytotoxicity against human HL60 cells assessed as decrease in cell number after 24 hrs by MTT assay
- Type: functional, cell-based
- Study conditions: HL-60, 24 h
The figure you give is taken to be in µg/mL; do not add the unit.

Example results:
BrCCOc1c(Br)cc(Br)cc1Oc1ccc(Br)cc1Br
26.2
BrCCCOc1c(Br)cc(Br)cc1Oc1ccc(Br)cc1Br
29.9
C=CCOc1c(Br)cc(Br)cc1Oc1ccc(Br)cc1Br
27.9

Input "Brc1ccc(Oc2cc(Br)cc(Br)c2OCCCCCN2CCN(c3ccccc3)CC2)c(Br)c1" , output reported IC50. 41.6
